# target_desc: ECF27_1331
Please go through the items and note down their fold repression.
Numbers only.

{"binder": "AS11_987 (protein) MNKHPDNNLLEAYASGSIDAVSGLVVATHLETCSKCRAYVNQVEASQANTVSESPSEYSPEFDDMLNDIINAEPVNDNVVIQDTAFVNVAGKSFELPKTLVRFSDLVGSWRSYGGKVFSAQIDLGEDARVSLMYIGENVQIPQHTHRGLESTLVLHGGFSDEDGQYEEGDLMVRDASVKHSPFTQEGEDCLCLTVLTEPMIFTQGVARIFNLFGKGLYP", "recorded_number": 3.06}
{"binder": "AS31_34 (protein) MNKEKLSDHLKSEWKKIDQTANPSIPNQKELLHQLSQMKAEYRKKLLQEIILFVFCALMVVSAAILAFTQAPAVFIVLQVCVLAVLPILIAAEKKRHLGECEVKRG", "recorded_number": 2.57}
{"binder": "AS16_973 (protein) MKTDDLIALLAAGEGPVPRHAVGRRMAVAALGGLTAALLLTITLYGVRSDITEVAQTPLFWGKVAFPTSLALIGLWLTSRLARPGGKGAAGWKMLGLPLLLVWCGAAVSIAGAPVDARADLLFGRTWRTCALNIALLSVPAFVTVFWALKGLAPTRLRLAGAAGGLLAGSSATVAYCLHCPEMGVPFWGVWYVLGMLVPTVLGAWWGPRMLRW", "recorded_number": 0.929}
{"binder": "AS02_915 (protein) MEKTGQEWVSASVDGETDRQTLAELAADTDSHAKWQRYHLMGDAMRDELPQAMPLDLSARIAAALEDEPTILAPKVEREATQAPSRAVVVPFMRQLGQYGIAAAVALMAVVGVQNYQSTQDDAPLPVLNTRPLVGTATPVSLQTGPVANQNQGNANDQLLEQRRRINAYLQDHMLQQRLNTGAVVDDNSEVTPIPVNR", "recorded_number": 4.27}
{"binder": "AS04_1609 (protein) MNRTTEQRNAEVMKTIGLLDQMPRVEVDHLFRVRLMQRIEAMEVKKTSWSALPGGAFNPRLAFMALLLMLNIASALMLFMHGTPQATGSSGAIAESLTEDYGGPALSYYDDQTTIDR", "recorded_number": 2.31}
{"binder": "AS03_1198 (protein) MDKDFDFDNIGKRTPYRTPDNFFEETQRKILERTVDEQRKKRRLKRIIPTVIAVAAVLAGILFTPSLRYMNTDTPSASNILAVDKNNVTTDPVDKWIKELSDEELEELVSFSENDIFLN", "recorded_number": 1.42}

We next turn to a different binder, shown below.
stdin: I have this binder here, AS27_4265 (protein) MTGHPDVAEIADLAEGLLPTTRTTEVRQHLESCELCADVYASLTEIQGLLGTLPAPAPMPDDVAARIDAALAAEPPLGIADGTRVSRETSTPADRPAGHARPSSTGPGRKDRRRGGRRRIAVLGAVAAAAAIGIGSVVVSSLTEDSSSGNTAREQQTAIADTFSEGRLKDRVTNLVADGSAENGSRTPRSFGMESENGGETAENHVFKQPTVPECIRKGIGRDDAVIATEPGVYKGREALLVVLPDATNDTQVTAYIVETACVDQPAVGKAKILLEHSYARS , and I need its recorded fold repression.
stdout: 3.78
